System: CCRF-CEM
protocol.details: NCI tumour cell line growth inhibition, 48 h
Active and inactive are the calls of the source. Rule as the data show it: active = GI50 up to about 1.1 µM and inactive = higher.
Choose the fitting class; nothing outside True for active, False for inactive is accepted.

CC(=O)OC(/C=C1/C=CC(=O)O1)COC(=O)c1ccccc1 (stereo not drawn); False
COc1ccc(N2NC(c3ccccc3)(c3ccccc3)C(C)C2=O)cc1 (stereo not drawn); False
Nc1ccn(C2CCC(COP(=O)(O)OCC(O)COP(=O)(O)OCC3OC(n4cc(F)c(=O)[nH]c4=O)CC3O)O2)c(=O)n1 (stereo not drawn); True

Query: Record lookup: outcome of this test for Cc1cc([N+](=O)[O-])ccc1Sc1c2ccccc2nc2cc(Cl)ccc12 ?
Response: False

Query: Would you mind telling me which call this test gave CC1=C(C(=O)CC(=O)C(=O)Nc2ccccc2C)Sc2ccccc2N1 ?
Response: False

====

System: HL-60
protocol.details: NCI tumour cell line growth inhibition, 48 h
The source made the active and inactive calls. No stated cut-off is given here; in the data, active = GI50 up to about 1.1 µM and inactive = higher.
Choose one outcome from this list and give only that: t for active, f for inactive

Reference set, count: 10
CCCNC1=Nc2ccccc2[C@@H]2N(C)c3ccccc3C(C)C[C@]12C (stereo not given in full); f
CCC(=O)Nc1nc2c(ncn2C2OC(COC(=O)CC)C(OC(=O)CC)C2OC(=O)CC)c(=O)[nH]1 (stereo not given); f
CCCCc1c2c([n+]([O-])c3c1CCCC3)CCCC2; f
COc1ccc(OCC(=O)O)c2c1CCC(C(C)C)C2=O (stereo not given); f
COc1nc(C(Cl)(Cl)Cl)c(Cl)c(O)c1Cl; f
CCn1cc(C(=O)O)c(=O)c2ccc(C)nc21; f
CC(=O)OCC1OC(OC2CC3C(C)(C)C(OC(C)=O)CC[C@]3(C)C3CCC45CC4(CC[C@H]5C(C)CC(O)[C@@H](O)C(C)(C)O)[C@]23C)C(O)C(O)C1O (stereo not given in full); f
O=C(O)[C@H]1NC[C@H]2C(Br)=NO[C@@H]12; f
c1cc(-c2cn[nH]c2)cc(-c2cn[nH]c2)c1; f
O=C(O)c1cccc(S(=O)(=O)NN2C(=O)CSC2c2ccccc2Cl)c1 (stereo not given); f

Query: Outcome? OC[C@H](O)[C@@H](OCc1ccccc1)[C@H](NCc1ccccc1)c1cccs1
Response: f

Query: For CN1CCN(c2c(Cl)cc(Cl)c3[nH]c4ccccc4c(=O)c23)CC1 , what call appears in the results of this test?
Response: f

Query: // return assay outcome for COc1cc(/C=C/C(=O)O)ccc1OS(=O)(=O)O
Response: f

Query: Which outcome was entered for the compound CSc1ncnc2c1ncn2CC(=O)C1CCC2C3CCC4=CC(=O)CCC4(C)C3CCC12C (stereo not given) in this test?
Response: t

Query: Per the assay record, what outcome was assigned to COc1ccc(/C=C\c2cc(OC)c(OC)c(OC)c2)cc1 ?
Response: t

Query: What outcome does the record of this test show for Cc1cc([N+](=O)[O-])ccc1Sc1c2ccccc2nc2cc(Cl)ccc12 ?
Response: f

Query: Write down the call the test reported for this compound. Item: COc1cccc(C2SCC(=O)N2c2ccc(-c3ccc(-n4c(-c5ccccc5)nc5ccccc5c4=O)cc3)cc2)c1OC (stereo not given)
Response: f

Query: Record request — test call for CC1=C(C)C(=O)OC(C(C)(O)C2(O)CCC3(O)C4CC(Cl)C5(O)C(O)C=CC(=O)C5(C)C4CCC32C)C1 (stereo not given)
Response: f

Query: Dear colleague, could you share the recorded outcome for CC(C)=NN/C(=N\c1ccc(Cl)cc1)NS(=O)(=O)c1ccc(Oc2cccc(Cl)c2C#N)cc1 when you have a moment?
Response: f

Query: Tell me the recorded outcome of this test for COc1nc2c(c(=O)n1C)N[C@H]1[C@H](OC(C)=O)[C@@H](OC(C)=O)CO[C@H]1N2 .
Response: f
